The measurements presented in this section are drawn from patent US20150087627A1.

Target Entity: PI3K β (p110β/p85α) (Homo sapiens, UniProt P42338)
Construct: purchased Upstate / Millipore Corporation
Sequence (P42338 whole entry): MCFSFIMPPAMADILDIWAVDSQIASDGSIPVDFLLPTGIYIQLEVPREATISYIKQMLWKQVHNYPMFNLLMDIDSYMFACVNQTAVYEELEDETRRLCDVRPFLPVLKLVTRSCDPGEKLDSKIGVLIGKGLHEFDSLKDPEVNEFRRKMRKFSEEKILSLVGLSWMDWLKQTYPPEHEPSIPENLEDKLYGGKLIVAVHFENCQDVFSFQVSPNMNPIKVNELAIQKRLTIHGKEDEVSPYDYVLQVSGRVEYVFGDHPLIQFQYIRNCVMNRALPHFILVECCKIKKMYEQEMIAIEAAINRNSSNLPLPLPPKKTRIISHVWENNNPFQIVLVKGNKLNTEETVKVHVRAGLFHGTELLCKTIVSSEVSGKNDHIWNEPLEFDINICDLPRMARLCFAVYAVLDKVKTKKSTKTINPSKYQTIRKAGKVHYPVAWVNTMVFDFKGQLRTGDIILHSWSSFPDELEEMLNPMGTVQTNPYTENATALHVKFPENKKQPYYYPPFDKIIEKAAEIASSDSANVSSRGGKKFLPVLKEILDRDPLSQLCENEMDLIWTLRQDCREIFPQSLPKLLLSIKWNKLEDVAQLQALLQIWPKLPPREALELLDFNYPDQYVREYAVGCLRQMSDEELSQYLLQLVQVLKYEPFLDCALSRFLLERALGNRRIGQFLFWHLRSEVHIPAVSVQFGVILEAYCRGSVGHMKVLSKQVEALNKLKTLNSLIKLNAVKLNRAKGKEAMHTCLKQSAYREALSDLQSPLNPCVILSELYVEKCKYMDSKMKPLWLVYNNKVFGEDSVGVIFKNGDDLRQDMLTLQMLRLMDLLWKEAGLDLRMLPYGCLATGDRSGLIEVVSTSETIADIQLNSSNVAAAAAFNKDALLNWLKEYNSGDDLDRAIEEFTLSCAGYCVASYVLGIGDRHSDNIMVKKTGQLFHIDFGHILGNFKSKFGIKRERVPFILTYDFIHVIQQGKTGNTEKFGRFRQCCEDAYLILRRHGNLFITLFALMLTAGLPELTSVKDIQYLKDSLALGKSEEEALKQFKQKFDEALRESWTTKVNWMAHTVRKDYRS
Sequence (P27986 whole entry partner): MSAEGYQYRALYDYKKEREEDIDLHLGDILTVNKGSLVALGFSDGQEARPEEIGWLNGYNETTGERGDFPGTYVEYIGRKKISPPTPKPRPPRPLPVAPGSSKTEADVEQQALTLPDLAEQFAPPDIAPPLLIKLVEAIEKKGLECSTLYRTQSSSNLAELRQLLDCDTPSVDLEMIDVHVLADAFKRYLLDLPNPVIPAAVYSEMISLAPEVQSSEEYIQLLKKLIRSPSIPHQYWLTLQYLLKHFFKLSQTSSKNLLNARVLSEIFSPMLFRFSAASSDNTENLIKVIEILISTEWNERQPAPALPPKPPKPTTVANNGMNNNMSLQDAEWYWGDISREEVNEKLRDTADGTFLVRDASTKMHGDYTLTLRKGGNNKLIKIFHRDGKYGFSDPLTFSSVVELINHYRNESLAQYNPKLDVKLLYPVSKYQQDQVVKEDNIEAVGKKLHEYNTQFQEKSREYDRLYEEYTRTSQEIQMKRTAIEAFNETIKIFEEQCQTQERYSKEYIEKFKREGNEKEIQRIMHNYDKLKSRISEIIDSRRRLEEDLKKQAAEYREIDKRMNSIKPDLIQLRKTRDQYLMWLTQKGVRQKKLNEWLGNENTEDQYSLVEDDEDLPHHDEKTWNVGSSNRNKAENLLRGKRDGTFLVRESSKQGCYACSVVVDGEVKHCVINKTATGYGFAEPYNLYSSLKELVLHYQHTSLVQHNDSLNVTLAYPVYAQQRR
Test: PI 3-Kinase (human) HTRF assay, PI3K β
Format: biochemical
Measurement Setup: read-out: PI3K β IC50
Experimental Readout: IC50

Solved cases (5 shown):
| Molecule | Observed Result |
| --- | --- |
| Nc1noc2cc(-c3ccc4nccc(-c5ccncc5)c4c3)ccc12 | < 10 µM |
| COc1ncc(-c2ccc3ncc(C(=O)N4CCOCC4)n3c2)cc1NS(=O)(=O)c1cccc(F)c1 | < 1 µM |
| Nc1nc2cc(-c3ccc4ncc(C(=O)N5CCOCC5)n4c3)ccc2o1 | < 10 µM |
| CN1CCN(n2cnc3ccc(-c4ccc5oc(N)nc5c4)cc3c2=O)CC1 [Compound 446] | > 10 µM |
| Nc1nc2cc(-c3ccc4ncc(N5CC(N6CCNCC6)C5)nc4c3)ccc2o1 | < 1 µM |

Take each entry in turn and give its IC50.
1. C[C@H]1CN(c2cnc3cccc(-c4ccc5oc(N)nc5c4)c3n2)CCN1
2. Nc1nc2cc(-c3ccc4ncc(C(=O)N5CCN(C6CC6)CC5)n4c3)ccc2o1
3. C[C@@H]1CN(C(=O)C2CN(c3cnc4ccc(-c5ccc6oc(N)nc6c5)cc4n3)C2)CCN1

-- reply
1: > 10 µM; 2: < 10 µM; 3: < 10 µM

Take each entry in turn and give its IC50.
1. Nc1nc2cc(-c3ccc4ncc(C(=O)N5CCn6cncc6C5)n4c3)ccc2o1
2. Cc1cn(C2CN(c3cnc4ccc(-c5ccc6oc(N)nc6c5)cc4n3)C2)cn1
3. C[C@@H]1CN(C2CN(C(=O)c3cnc4ccc(-c5ccc6oc(N)nc6c5)cn34)C2)CCN1
4. Nc1nc2cc(-c3ccc4ncc(N5CCNC(C(F)(F)F)C5)nc4c3)ccc2o1 (centres unmarked)
5. CC(Oc1nc(-c2ccc3oc(N)nc3c2)cnc1N)C(F)(F)F (centres unmarked)

-- reply
1. < 1 µM
2. < 1 µM
3. < 10 µM
4. < 1 µM
5. < 1 µM

Take each entry in turn and give its IC50.
1. Nc1nc2cc(-c3ccc4ncc(C(=O)NCCCN5CCCC5)n4c3)ccc2o1
2. Cc1cc(-c2ccc3nc(N)oc3c2)cn2c(CCN3CCN(C)CC3)nnc12

-- reply
< 1 µM
> 10 µM

Take each entry in turn and give its IC50.
1. Nc1nc2cc(-c3ccc4ncc(C(=O)N5CCC(N6CCOCC6)CC5)n4c3)ccc2o1
2. CN1CCN(C(=O)c2cnc3cnc(-c4ccc5oc(N)nc5c4)cn23)CC1

-- reply
["< 10 µM", "> 10 µM"]

---

Target Entity: PI3K α (p110α/p85α) (Homo sapiens)
Construct: purchased Upstate / Millipore Corporation
Sequence (P42336 whole entry, one chain of several): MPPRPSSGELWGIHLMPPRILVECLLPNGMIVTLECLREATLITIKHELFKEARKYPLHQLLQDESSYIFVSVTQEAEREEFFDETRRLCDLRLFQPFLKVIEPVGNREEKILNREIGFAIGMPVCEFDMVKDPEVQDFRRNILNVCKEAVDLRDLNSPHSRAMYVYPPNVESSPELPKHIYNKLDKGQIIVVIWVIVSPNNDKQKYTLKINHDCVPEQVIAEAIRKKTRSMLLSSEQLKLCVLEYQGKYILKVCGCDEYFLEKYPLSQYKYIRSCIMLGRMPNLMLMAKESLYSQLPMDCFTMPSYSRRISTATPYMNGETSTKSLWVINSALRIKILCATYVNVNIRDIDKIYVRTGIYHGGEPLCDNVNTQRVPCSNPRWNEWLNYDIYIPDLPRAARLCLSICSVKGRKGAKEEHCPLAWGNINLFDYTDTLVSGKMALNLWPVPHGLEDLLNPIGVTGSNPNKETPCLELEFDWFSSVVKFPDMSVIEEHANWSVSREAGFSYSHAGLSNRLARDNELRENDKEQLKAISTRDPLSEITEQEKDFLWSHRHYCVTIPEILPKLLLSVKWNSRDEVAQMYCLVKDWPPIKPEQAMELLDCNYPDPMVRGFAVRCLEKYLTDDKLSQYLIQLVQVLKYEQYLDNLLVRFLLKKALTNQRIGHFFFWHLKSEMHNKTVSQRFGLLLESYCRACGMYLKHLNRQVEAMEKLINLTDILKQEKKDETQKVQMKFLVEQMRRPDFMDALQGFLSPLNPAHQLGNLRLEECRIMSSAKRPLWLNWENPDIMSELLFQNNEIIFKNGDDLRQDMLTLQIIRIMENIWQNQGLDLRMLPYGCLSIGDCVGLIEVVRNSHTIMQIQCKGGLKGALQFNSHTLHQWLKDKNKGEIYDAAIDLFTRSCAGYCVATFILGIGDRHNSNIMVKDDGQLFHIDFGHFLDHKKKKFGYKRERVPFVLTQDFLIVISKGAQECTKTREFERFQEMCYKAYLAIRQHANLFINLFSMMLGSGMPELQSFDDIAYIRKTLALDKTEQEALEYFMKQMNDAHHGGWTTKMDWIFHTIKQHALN
Test: PI 3-Kinase (human) HTRF assay, PI3K α
Type: biochemical
Measurement Setup: read-out: PI3K α IC50
pIC50: −log10 of the molar value.
Provide the recorded pIC50 for the entries that follow.

Solved cases (6 shown):
| Compound | Target Entity | Experimental Readout | Observed Result |
| --- | --- | --- | --- |
| CN1CCN(C(=O)c2cnn3ccc(-c4ccc5oc(N)nc5c4)cc23)CC1 | PI3K α (p110α/p85α) (Homo sapiens) | pIC50 | > 6.00 |
| Nc1nc2cc(-c3ccc4ncc(N5CCN(C(=O)C6(N)CCC6)CC5)nc4c3)ccc2o1 | PI3K α (p110α/p85α) (Homo sapiens) | pIC50 | > 7.00 |
| Nc1nc2ccc(-c3ccc4sc(N)nc4c3)cc2o1 | PI3K α (p110α/p85α) (Homo sapiens) | pIC50 | > 7.00 |
| CN1CCN(CCc2nnc3ccc(-c4ccc5nc(N)oc5c4)cn23)CC1 | PI3K α (p110α/p85α) (Homo sapiens) | pIC50 | < 5.00 |
| Nc1nc2cc(-c3ccc4ncc(N5CC(N6CC[C@@H](O)C6)C5)nc4c3)ccc2o1 | PI3K α (p110α/p85α) (Homo sapiens) | pIC50 | > 7.00 |
| COc1ncc(-c2ccc3ncn(C4CCN(C)CC4)c(=O)c3c2)cc1NS(=O)(=O)c1ccccc1 | PI3K α (p110α/p85α) (Homo sapiens) | pIC50 | > 7.00 |

Take each entry in turn and give its pIC50.
1. CS(=O)(=O)N1CCN(C2CCN(c3cnc4ccc(-c5ccc6oc(N)nc6c5)cc4n3)CC2)CC1
2. Nc1nc2cc(-c3ccc4ncc(C(=O)N5CC(N6CCC(F)(F)C6)C5)n4c3)ccc2o1
3. CCN(CC)CCCNc1cnc2ccc(-c3ccc4oc(N)nc4c3)cc2n1
4. Nc1nc2cc(-c3ccc4ncc(N5CC(C(=O)N6CCOCC6)C5)nc4c3)ccc2o1 [Compound 252]
5. C[C@H]1CN(C2CN(C(=O)c3cnc4ccc(-c5ccc6oc(N)nc6c5)cn34)C2)CCN1C
6. CC(Oc1nc(-c2ccc3oc(N)nc3c2)cnc1N)C(F)(F)F (centres unmarked)
7. NC(=O)[C@@H]1CCCN1c1cnc2ccc(-c3ccc4oc(N)nc4c3)cc2n1

-- reply
1: > 7.00; 2: > 7.00; 3: > 7.00; 4: < 5.00; 5: > 7.00; 6: > 5.00; 7: > 7.00
